Provide the reported reverse-splicing fitness of each item.
B1: Azoarcus group I ribozyme (parent)
chain: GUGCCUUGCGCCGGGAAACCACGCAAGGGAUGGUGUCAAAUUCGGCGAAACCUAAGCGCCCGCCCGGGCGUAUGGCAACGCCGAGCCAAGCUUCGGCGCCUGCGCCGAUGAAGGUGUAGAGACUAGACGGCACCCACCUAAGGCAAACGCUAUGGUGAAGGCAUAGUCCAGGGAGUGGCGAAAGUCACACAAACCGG

# Variants of: B1
# Run Description: reverse-splicing fitness (ratio to wild type); higher = more active; in vitro selection; Mg2+ level not given
Form rule: numeric answer, no unit written next to it.

Data request, read-out reverse-splicing fitness, for C82A A111C A120C A145U C150U C169A 0.00985

Data request, read-out reverse-splicing fitness, for C82U A111U A120G A145G C169G 0.00995

Data request, read-out reverse-splicing fitness, for C82A A111C C150A C169A 0.00979
